test: Plasma concentration of Formula I at midpoint time of post dosing PET scans; format: in vivo; conditions: male, human, 45 mg, DAT cohort, 45 mg once a day (30 mg for 3 days first), day 14, 24 h post last dose
Quantity: concentration at 24 h
Answer with the figure and its unit, nothing else.

Exercise: Need concentration at 24 h, item Clc1ccc(C2CNCc3cc(-c4ccc5ncnn5c4)ccc32)cc1Cl (stereo not shown)
Solution: 647 ng/mL

----------
assay: Plasma concentration of Formula I at midpoint time of post dosing PET scans; format: in vivo; details: male, human, 45 mg, SERT cohort, 45 mg once a day (30 mg for 3 days first), day 14, 24 h post last dose
Quantity: concentration at 24 h
Units required after the number.

Exercise: Tell me the measured concentration at 24 h of Clc1ccc(C2CNCc3cc(-c4ccc5ncnn5c4)ccc32)cc1Cl (stereo not shown) [Formula I] , please.
Solution: 940 ng/mL

----------
experiment: Plasma concentration of Formula I at midpoint time of post dosing PET scans; format: in vivo; settings: male, human, 3 mg, SERT cohort, 3 mg once a day, day 14, 24 h post last dose
Quantity: concentration at 24 h (ng/mL)
Respond numerically; units are ng/mL and should not be typed.

Exercise: # query: concentration at 24 h of entry Clc1ccc(C2CNCc3cc(-c4ccc5ncnn5c4)ccc32)cc1Cl (stereo not shown) [Formula I]
Solution: 52

----------
assay: 14-day once-a-day oral multiple ascending dose PK study, day-14 data; assay type: in vivo, human; details: male, human, plasma, oral, 10 mg, 10 mg daily, day 14, draw flagged Cmax (1-3 h); read-out: Formula I plasma concentration (Cmax)
Quantity: Cmax (ng/mL)
Report only the number, with the unit ng/mL understood.

Exercise: Return reported Cmax; argument: Clc1ccc(C2CNCc3cc(-c4ccc5ncnn5c4)ccc32)cc1Cl (stereo not shown)
Solution: 218

----------
assay: Plasma concentration of Formula I at midpoint time of post dosing PET scans; assay type: in vivo; conditions: male, human, 30 mg, SERT cohort, 30 mg once a day, day 14, 24 h post last dose
Quantity: concentration at 24 h (ng/mL)
The response must be a number in ng/mL with no trailing unit.

Exercise: Please give the measured concentration at 24 h for this compound: Clc1ccc(C2CNCc3cc(-c4ccc5ncnn5c4)ccc32)cc1Cl (stereo not shown) [Formula I]
Solution: 668

----------
experiment: 14-day once-a-day oral multiple ascending dose PK study, day-14 data; assay type: in vivo, human; details: male, human, plasma, oral, 45 mg, 45 mg daily, male, day 14, printed in the 23 h draw line
Quantity: AUC (ng·h/mL)
State just the number; it will be interpreted in ng·h/mL.

Exercise: Reported AUC, compound Clc1ccc(C2CNCc3cc(-c4ccc5ncnn5c4)ccc32)cc1Cl (stereo not shown) : ____
Solution: 6280

----------
assay: Plasma concentration of Formula I at midpoint time of post dosing PET scans; assay type: in vivo; details: male, human, 60 mg, DAT cohort, 60 mg once a day (30 mg for 3 days first), day 14, 24 h post last dose
Quantity: concentration at 24 h

Exercise: Any idea what concentration at 24 h was measured for Clc1ccc(C2CNCc3cc(-c4ccc5ncnn5c4)ccc32)cc1Cl (stereo not shown) ?
Solution: 920 ng/mL

----------
test: Plasma concentration of Formula I at midpoint time of post dosing PET scans; format: in vivo; settings: male, human, 3 mg, SERT cohort, 3 mg once a day, day 10, 4 h post dose
Quantity: concentration at 4 h (ng/mL)
Numeric only. Scale: ng/mL

Exercise: Which concentration at 4 h is listed for Clc1ccc(C2CNCc3cc(-c4ccc5ncnn5c4)ccc32)cc1Cl (stereo not shown) ?
Solution: 68

----------
experiment: Plasma concentration of Formula I at midpoint time of post dosing PET scans; format: in vivo; details: male, human, 10 mg, DAT cohort, 10 mg once a day, day 10, 4 h post dose
Quantity: concentration at 4 h (ng/mL)
Hi! Could you send only the number? It should be in ng/mL, unit omitted.

Exercise: Entry Clc1ccc(C2CNCc3cc(-c4ccc5ncnn5c4)ccc32)cc1Cl (stereo not shown) [Formula I] : reported concentration at 4 h = ?
Solution: 204

----------
experiment: Plasma concentration of Formula I at midpoint time of post dosing PET scans; format: in vivo; conditions: male, human, 10 mg, DAT cohort, 10 mg once a day, day 14, 24 h post last dose
Quantity: concentration at 24 h (ng/mL)
State the answer as a number, implicitly in ng/mL.

Exercise: What does the data say about its concentration at 24 h? Entry: Clc1ccc(C2CNCc3cc(-c4ccc5ncnn5c4)ccc32)cc1Cl (stereo not shown) [Formula I]
Solution: 141

----------
assay: Plasma concentration of Formula I at midpoint time of post dosing PET scans; format: in vivo; settings: male, human, 10 mg, SERT cohort, 10 mg once a day, day 14, 24 h post last dose
Quantity: concentration at 24 h (ng/mL)
Could you give me the number in ng/mL? Just the number is fine.

Exercise: Which measured concentration at 24 h value corresponds to Clc1ccc(C2CNCc3cc(-c4ccc5ncnn5c4)ccc32)cc1Cl (stereo not shown) ?
Solution: 127

----------
assay: 14-day once-a-day oral multiple ascending dose PK study, day-14 data; format: in vivo, human; settings: male, human, plasma, oral, 45 mg, 45 mg daily, male, day 14, blood draw at 0 h (pre-dose trough); read-out: Formula I plasma concentration
Quantity: concentration at 0 h (ng/mL)
Respond numerically; units are ng/mL and should not be typed.

Exercise: Dear colleague, I am looking for the recorded concentration at 0 h of the following compound: Clc1ccc(C2CNCc3cc(-c4ccc5ncnn5c4)ccc32)cc1Cl (stereo not shown) [Formula I]
Solution: 635

----------
experiment: 14-day once-a-day oral multiple ascending dose PK study, day-14 data; type: in vivo, human; conditions: female, human, plasma, oral, 45 mg, 45 mg daily, female, day 14, blood draw at 0 h (pre-dose trough); read-out: Formula I plasma concentration
Quantity: concentration at 0 h (ng/mL)
Form entry: value (ng/mL) — number only.

Exercise: Would you mind telling me what concentration at 0 h value was observed for Clc1ccc(C2CNCc3cc(-c4ccc5ncnn5c4)ccc32)cc1Cl (stereo not shown) [Formula I] ?
Solution: 997

----------
inhibition at 0.01 µM for assorted compounds
biological target: Transporter, Norepinephrine (NET) (Homo sapiens); experiment: NET radioligand binding ([125I] RTI-55), Eurofins; conditions: read-out: NET, % inhibition, 10 nM compound
Sequence (P23975 whole entry): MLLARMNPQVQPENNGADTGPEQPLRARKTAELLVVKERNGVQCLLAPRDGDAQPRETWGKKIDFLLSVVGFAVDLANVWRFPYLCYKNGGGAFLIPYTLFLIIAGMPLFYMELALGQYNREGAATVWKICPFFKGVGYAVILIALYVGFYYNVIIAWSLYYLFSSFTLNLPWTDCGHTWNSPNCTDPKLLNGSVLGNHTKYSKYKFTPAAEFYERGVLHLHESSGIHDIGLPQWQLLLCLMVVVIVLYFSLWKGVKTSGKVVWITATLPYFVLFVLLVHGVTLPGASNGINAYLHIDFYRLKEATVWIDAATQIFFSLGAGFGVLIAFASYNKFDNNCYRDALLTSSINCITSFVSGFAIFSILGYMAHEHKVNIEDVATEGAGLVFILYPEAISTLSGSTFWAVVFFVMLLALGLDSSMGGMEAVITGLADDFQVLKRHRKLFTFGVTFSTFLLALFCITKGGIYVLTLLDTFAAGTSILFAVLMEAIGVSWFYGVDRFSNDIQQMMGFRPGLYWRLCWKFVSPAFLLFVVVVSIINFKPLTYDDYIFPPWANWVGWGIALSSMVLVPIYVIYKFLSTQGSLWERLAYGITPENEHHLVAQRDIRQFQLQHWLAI
Report only the number, with the unit % understood.

Completed entries (count: 3):
[
  {
    "Compound": "[2H]C1([2H])NCc2cc(-c3ccc4ncnn4c3)ccc2C1([2H])c1ccc(Cl)c(Cl)c1 (single isomer, unassigned) [Compound 16B]",
    "Unit": "%",
    "Endpoint Result": 49
  },
  {
    "Compound": "[2H]C1([2H])NC([2H])([2H])C([2H])(c2ccc(Cl)c(Cl)c2)c2ccc(-c3ccc4ncnn4c3)cc21 (single isomer, unassigned)",
    "Unit": "%",
    "Endpoint Result": 29
  },
  {
    "Compound": "[2H]C1([2H])NCC(c2ccc(Cl)c(Cl)c2)c2ccc(-c3ccc4ncnn4c3)cc21 (single isomer, unassigned) [Compound 12A]",
    "Unit": "%",
    "Endpoint Result": 34
  }
]

Then this compound:
Exercise: Which measured inhibition at 0.01 µM value corresponds to Clc1ccc(C2CNCc3cc(-c4ccc5ncnn5c4)ccc32)cc1Cl (stereo not shown) ?
Solution: 35

----------
assay: 14-day once-a-day oral multiple ascending dose PK study, day-14 data; assay type: in vivo, human; conditions: male, human, plasma, oral, 45 mg, 45 mg daily, male, day 14, draw at 23 h (Ctrough); read-out: Formula I plasma concentration
Quantity: concentration at 23 h (ng/mL)
Kindly answer with a numeric value in ng/mL, unit omitted.

Exercise: What does the data say about its concentration at 23 h? Entry: Clc1ccc(C2CNCc3cc(-c4ccc5ncnn5c4)ccc32)cc1Cl (stereo not shown) [Formula I]
Solution: 672

----------
assay: 14-day once-a-day oral multiple ascending dose PK study, day-14 data; assay type: in vivo, human; settings: male, human, plasma, oral, 45 mg, 45 mg daily, day 14, draw flagged Cmax (1-2 h); read-out: Formula I plasma concentration (Cmax)
Quantity: Cmax
Write down the value, and be sure its unit follows.

Exercise: Which measured Cmax value corresponds to Clc1ccc(C2CNCc3cc(-c4ccc5ncnn5c4)ccc32)cc1Cl (stereo not shown) ?
Solution: 1150 ng/mL

----------
assay: Plasma concentration of Formula I at midpoint time of post dosing PET scans; assay type: in vivo; settings: male, human, 45 mg, DAT cohort, 45 mg once a day (30 mg for 3 days first), day 10, 4 h post dose
Quantity: concentration at 4 h (ng/mL)
Return type: number; implicit unit ng/mL.

Exercise: Returns the measured concentration at 4 h for the input molecule. Input: Clc1ccc(C2CNCc3cc(-c4ccc5ncnn5c4)ccc32)cc1Cl (stereo not shown)
Solution: 809

----------
experiment: 14-day once-a-day oral multiple ascending dose PK study, day-14 data; type: in vivo, human; settings: male, human, plasma, oral, 10 mg, 10 mg daily, male, day 14, blood draw at 0 h (pre-dose trough); read-out: Formula I plasma concentration
Quantity: concentration at 0 h (ng/mL)
Write the number in ng/mL without appending the unit.

Exercise: Value lookup for concentration at 0 h; key = Clc1ccc(C2CNCc3cc(-c4ccc5ncnn5c4)ccc32)cc1Cl (stereo not shown)
Solution: 125
